meta.source: patent US10144742B2

Some compounds, each annotated with its measured IC50.
# tgt: hNAMPT protein (Homo sapiens (Human), UniProt P43490)
# Sequence (P43490 whole entry): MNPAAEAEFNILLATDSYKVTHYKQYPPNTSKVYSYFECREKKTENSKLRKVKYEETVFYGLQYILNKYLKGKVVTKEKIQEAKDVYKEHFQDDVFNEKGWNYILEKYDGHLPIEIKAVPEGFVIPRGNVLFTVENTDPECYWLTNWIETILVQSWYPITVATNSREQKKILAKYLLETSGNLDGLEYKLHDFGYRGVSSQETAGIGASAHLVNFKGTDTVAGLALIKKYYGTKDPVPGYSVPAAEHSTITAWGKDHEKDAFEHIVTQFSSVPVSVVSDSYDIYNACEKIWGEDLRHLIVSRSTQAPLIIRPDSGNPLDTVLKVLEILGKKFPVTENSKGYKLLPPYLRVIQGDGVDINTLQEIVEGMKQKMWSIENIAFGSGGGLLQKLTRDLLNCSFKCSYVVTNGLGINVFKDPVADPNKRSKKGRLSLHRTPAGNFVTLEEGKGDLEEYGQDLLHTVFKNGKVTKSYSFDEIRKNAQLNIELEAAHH
# test summary: NAMPT enzyme assay (TR-FRET/HTRF, BodiPY ligand, anti 6His-Tb)
# Type: binding
# settings: NAMPT IC50 range class; read-out: IC50

Recorded IC50, per entry:
compound structure string | tgt | IC50
O=C(NCCCn1ccnc1)c1ccc2nc(-c3ccccn3)c(-c3ccccc3)nc2c1 | hNAMPT protein (Homo sapiens (Human), UniProt P43490) | 1000 to 2000 nM
O=C(NCCCc1ncc[nH]1)c1ccc2nc(O[C@@H]3CCOC3)c(-c3ccc(Cl)cc3)nc2c1 | hNAMPT protein (Homo sapiens (Human), UniProt P43490) | < 100 nM
N#Cc1ccc(-c2nc3ccc(C(=O)NCCCn4ccnc4)cc3nc2-c2ccccc2)cc1 | hNAMPT protein (Homo sapiens (Human), UniProt P43490) | 500 to 1000 nM
Cc1ccsc1-c1nc2cc(C(=O)NCCCc3ncc[nH]3)ccc2nc1-c1ccc(F)cc1 | hNAMPT protein (Homo sapiens (Human), UniProt P43490) | < 100 nM
Cn1ccc(-c2nc3cc(C(=O)NCCCn4ccnc4)ccc3nc2-c2ccccc2)n1 | hNAMPT protein (Homo sapiens (Human), UniProt P43490) | 2000 to 10000 nM
O=C(NCCCn1ccnc1)c1ccc2nc(-c3ccccc3)c(-c3ccc4c(c3)CCO4)nc2c1 | hNAMPT protein (Homo sapiens (Human), UniProt P43490) | 500 to 1000 nM

Q: Give reported IC50 for CC(C)Oc1nc2ccc(C(=O)NCc3ccc4nccn4c3)cc2nc1-c1ccc(F)c(F)c1 (hNAMPT protein (Homo sapiens (Human), UniProt P43490))
Result: 500 to 1000 nM

Q: Give reported IC50 for NS(=O)(=O)c1cccc(-c2nc3ccc(C(=O)NCCCn4ccnc4)cc3nc2-c2ccccc2)c1 (hNAMPT protein (Homo sapiens (Human), UniProt P43490))
Result: 100 to 500 nM

====

# tgt: UniProtKB P43490
# test summary: NAMPT enzyme assay (TR-FRET/HTRF, BodiPY ligand, anti 6His-Tb)
# Format: binding
# settings: NAMPT IC50 range class; read-out: IC50
# Source text: As discussed above, the invention provides compounds that are useful as inhibitors of the enzyme NAMPT. The NAMPT inhibition of a compound of the invention can be measured using a variety of methods known in the art. […] The TR-FRET signal can be measured using a high throughput microplate reader (e.g., Pherastar). […] The percent inhibition value at a single concentration of compound of the invention can be calculated relative to a control treated sample. […]
pIC50: −log10 of the molar value.
Some compounds, each annotated with its measured pIC50.

compound | pIC50
O=C(NCCCn1ccnc1)c1ccc2nc(-c3ccccc3)c(-c3ccccc3)nc2c1 [Compound I-261] | 6.30 to 7.00
O=C(NCCCc1ncc[nH]1)c1ccc2nc(O[C@H]3CCOC3)c(-c3ccc(Cl)cc3)nc2c1 [Compound I-360] | > 7.00
O=C(NCCCn1ccnc1)c1ccc2nc(C3=CCCC3)c(-c3ccccc3)nc2c1 [Compound I-230] | 6.00 to 6.30
COc1cccc(-c2nc3cc(C(=O)NCCCc4cccnc4)ccc3nc2N2CCC(N3CCOCC3)CC2)c1 [Compound I-70] | > 7.00
O=C(NCCCn1ccnc1)c1ccc2nc(-c3ccccc3)c(N3CCC3)nc2c1 [Compound I-175] | 5.00 to 5.70
O=C(NCCCc1ncc[nH]1)c1ccc2nc(-c3ccc(F)cc3)c(-c3ccccc3F)nc2c1 [Compound I-313] | 6.30 to 7.00

Q: Read the entry O=C(NCCCn1ccnc1)c1ccc2nc(N3CCC(N4CCC(O)CC4)CC3)c(-c3ccccc3)nc2c1 [Compound I-210] and write its reported pIC50.
Result: > 7.00

Q: Read the entry O=C(NCCCc1ncc[nH]1)c1ccc2nc(N3CCSCC3)c(-c3ccc(F)cc3)nc2c1 [Compound I-256] and write its reported pIC50.
Result: > 7.00

Q: Read the entry N#Cc1cccc(-c2nc3ccc(C(=O)NCCCn4ccnc4)cc3nc2-c2ccccc2)c1 [Compound I-219] and write its reported pIC50.
Result: 6.30 to 7.00
